Molecular target: Feline FcRn complex (FcRn-alpha subunit and beta-microglobulin) (feline)
Assay: SPR (Biacore), feline FcRn captured on SA chip, IgG flowed over, pH 6
I'd appreciate it if you could supply pKd values for the items below.
Give bare numbers, as −log10 of the molar value.

1) feline IgG1a Fc mutant Q311K, S428Y (antibody, part only; not given: Variable domains, not shown: another chain or arm of the molecule) constant: ASTTAPSVFPLAPSCGTTSGATVALACLVLGYFPEPVTVSWNSGALTSGVHTFPAVLQASGLYSLSSMVTVPSSRWLSDTFTCNVAHPPSNTKVDKTVRKTDHPPGPKPCDCPKCPPPEMLGGPSIFIFPPKPKDTLSISRTPEVTCLVVDLGPDDSDVQITWFVDNTQVYTAKTSPREEQFNSTYRVVSVLPILHKDWLKGKEFKCKVNSKSLPSPIERTISKAKGQPHEPQVYVLPPAQEELSRNKVSVTCLIKSFHPPDIAVEWEITGQPEPENNYRTTPPQLDSDGTYFVYSKLSVDRSHWQRGNTYTCSVYHEALHSHHTQKSLTQSPGK | 8.48
2) feline IgG1a Fc mutant S428Y, S252H (antibody, part only; not given: Variable domains, not shown: another chain or arm of the molecule; small tags and cut ends) constant: ASTTAPSVFPLAPSCGTTSGATVALACLVLGYFPEPVTVSWNSGALTSGVHTFPAVLQASGLYSLSSMVTVPSSRWLSDTFTCNVAHPPSNTKVDKTVRKTDHPPGPKPCDCPKCPPPEMLGGPSIFIFPPKPKDTLHISRTPEVTCLVVDLGPDDSDVQITWFVDNTQVYTAKTSPREEQFNSTYRVVSVLPILHQDWLKGKEFKCKVNSKSLPSPIERTISKAKGQPHEPQVYVLPPAQEELSRNKVSVTCLIKSFHPPDIAVEWEITGQPEPENNYRTTPPQLDSDGTYFVYSKLSVDRSHWQRGNTYTCSVYHEALHSHHTQKSLTQSPGK | 8.19
3) feline IgG1a Fc mutant Q311Y, S428M (antibody, part only; not given: Variable domains, not shown: another chain or arm of the molecule; small tags and cut ends) constant: ASTTAPSVFPLAPSCGTTSGATVALACLVLGYFPEPVTVSWNSGALTSGVHTFPAVLQASGLYSLSSMVTVPSSRWLSDTFTCNVAHPPSNTKVDKTVRKTDHPPGPKPCDCPKCPPPEMLGGPSIFIFPPKPKDTLSISRTPEVTCLVVDLGPDDSDVQITWFVDNTQVYTAKTSPREEQFNSTYRVVSVLPILHYDWLKGKEFKCKVNSKSLPSPIERTISKAKGQPHEPQVYVLPPAQEELSRNKVSVTCLIKSFHPPDIAVEWEITGQPEPENNYRTTPPQLDSDGTYFVYSKLSVDRSHWQRGNTYTCSVMHEALHSHHTQKSLTQSPGK | 8.24

Prompt: # return recorded pKd for entry feline IgG1a Fc mutant S428M, S252Y (antibody, part only; not given: Variable domains, not shown: another chain or arm of the molecule; small tags and cut ends) constant: ASTTAPSVFPLAPSCGTTSGATVALACLVLGYFPEPVTVSWNSGALTSGVHTFPAVLQASGLYSLSSMVTVPSSRWLSDTFTCNVAHPPSNTKVDKTVRKTDHPPGPKPCDCPKCPPPEMLGGPSIFIFPPKPKDTLYISRTPEVTCLVVDLGPDDSDVQITWFVDNTQVYTAKTSPREEQFNSTYRVVSVLPILHQDWLKGKEFKCKVNSKSLPSPIERTISKAKGQPHEPQVYVLPPAQEELSRNKVSVTCLIKSFHPPDIAVEWEITGQPEPENNYRTTPPQLDSDGTYFVYSKLSVDRSHWQRGNTYTCSVMHEALHSHHTQKSLTQSPGK
Response: 8.29

Where do these numbers come from? They come from patent US20240400708A1.
